STUDY_TARGET: Alpha-bungarotoxin (Bungarus multicinctus) (UniProt P60615)
Sequence (P60615 whole entry, looked up): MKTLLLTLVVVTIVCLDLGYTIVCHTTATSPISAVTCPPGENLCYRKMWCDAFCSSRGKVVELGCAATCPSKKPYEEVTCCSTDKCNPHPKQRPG
PROTOCOL_SUMMARY: alpha-bungarotoxin binders on microarray, profiling panel, artefact control for SMM control protein annotation, biochemical, small-molecule microarray, Alexa647 label, 635/667 nm fluorescence (AID 1117)
PROTOCOL_CONDITIONS: alpha-BTX-A647 binding fluorescence, higher = more signal
Below: a set of entries, each annotated with reported composite z-score.

Observe how each entry below is paired with its result.
COMPOUND	composite z-score
C=CCC(OC(C)=O)[C@@H]1[C@@H](N(Cc2cccc3ccccc23)C(=O)c2cccc3ccccc23)c2cc(OCCCO)ccc2N1C(=O)Cc1ccc(OC)cc1 (some centres undefined)	0.549
COCCCN1C(=O)[C@@]2(Cc3ccccc31)c1ccccc1C(=O)N(Cc1ccccc1Cl)[C@H]2c1ccc(CO)cc1	-0.342
C=C[C@H](OC)[C@@H](OC(=O)Nc1ccc(OC)cc1)c1ccc(OC)c(O)c1	-2.08

Ask: Recall the reported composite z-score of `C=CCNC(=O)[C@H]1[C@@H]2C(=O)O[C@@H](c3ccccc3)[C@@H](c3ccccc3)N2[C@@H](c2ccc(OCCO)cc2)[C@]12C(=O)Nc1ccc(C#CCCO)cc12` on Alpha-bungarotoxin (Bungarus multicinctus) (UniProt P60615) and write it down.
Result: 1.9
